biological target: T1, antibody raised against ETAG; test: phage ELISA, 405 nm; anti-E-tag antibody coated
T1 construct: read-out of display; also called E-tag antibody; E tag antibody
I'd appreciate it if you marked entries t when ETAG (OD) is lower than 10 OD and f when it is not.

{"binder": "DGI-2-40F-3-D7 (not shown: phage gene III coat protein (pCANTAB5E)) peptide: ALRSLGSGGFGWQAGRASPQGMTHFPYFGWSGMPTARVRPAAAGAPVPYPDPLEPRP", "answerLabel": "f"}
{"binder": "TANGHRYGGCGLWCKWMSGMAAAGAPVPYPDPLEPRP (not shown: phage gene III coat protein (pCANTAB5E)) [DGI-2-20R-4-E2]", "answerLabel": "f"}
{"binder": "ACSVGTALVFPQRWWYLGRSAAAGAPVPYPDPLEPRP (not shown: phage gene III coat protein (pCANTAB5E)) [DGL-2-20R-3-D6]", "answerLabel": "f"}
{"binder": "DGI-2-40F-3-B1 (not shown: phage gene III coat protein (pCANTAB5E)) peptide: HGTRLRGVDYVMTWAGWQGYSSRKHVQQAVAGSSPGSDELAAAGAPVPYPDPLEPRP", "answerLabel": "t"}
{"binder": "DGI-2-40F-3-D9 (not shown: phage gene III coat protein (pCANTAB5E)) peptide: RRTSADTDQLSRWEGAQAFSSLRSALSERLDSLRPGLPPSAAAGAPVPYPDPLEPRP", "answerLabel": "f"}
{"binder": "WAGSTDLWQLWSLWVKPELRAAAGAPVPYPDPLEPRP (not shown: phage gene III coat protein (pCANTAB5E)) [DGI-2-20F-3-B7]", "answerLabel": "f"}
{"binder": "LSHPMSPLRAASQMALTQGVAAAGAPVPYPDPLEPRP (not shown: phage gene III coat protein (pCANTAB5E)) [DGI-2-20R-4-H7]", "answerLabel": "f"}
{"binder": "DGI-2-40F-3-A8 (not shown: phage gene III coat protein (pCANTAB5E)) peptide: GQISLAGVAVCSSERMLLAFSSRVFLPGLKVPVTTSQRGSAAAGAPVPYPDPLEPRP", "answerLabel": "t"}
